Origin of the recorded values: ChEMBL document CHEMBL1201862

Let's look at some compounds and their measured GI50.
System: DU-145
Assay: NCI tumour cell line growth inhibition, 48 h
Calls of active or inactive are those of the source. Cut-off read from the data, not from the text of the source: active = GI50 up to about 1.1 µM and inactive = higher.

A selection of reference data follows.
{"columns": ["COMPOUND", "ASSAY TARGET", "MEASURED METRIC", "RECORDED VALUE"],
 "data": [
  ["CC(C)OC(=O)NCCn1cc(-c2ccccc2)nn1", "DU-145", "GI50", "> 100 µM (inactive)"],
  ["Cc1ccc2c(c1C)CC1(Cc3ccc(C)c(C)c3C1=O)C2=O (stereo unspecified)", "DU-145", "GI50", "> 100 µM (inactive)"]
]}

Problem: Bench note: what GI50 did O=C1NC(=O)C23C(=O)NC(=O)C12C1C=CC3CC1 (stereo unspecified) show?
Result: > 10 µM (inactive)

Problem: Note, next up: O=C1/C(=C/c2cccc([N+](=O)[O-])c2)N=C(c2ccccc2)N1c1ccc2c(c1)Sc1cc(N3C(=O)/C(=C/c4cccc([N+](=O)[O-])c4)N=C3c3ccccc3)ccc1N2
Result: 36.7 µM (inactive)

Problem: Note, next up: C=C(c1ccccc1)c1ccccc1-c1cc(-c2ccccc2)cc(-c2ccccc2)n1
Result: > 100 µM (inactive)

Problem: Note, next up: O=C(O)CN(CC(=O)O)Cc1cc(C#Cc2ccc(C#Cc3ccccc3)cc2)cc(CN(CC(=O)O)CC(=O)O)n1
Result: 17.3 µM (inactive)

====

Tested on: NCI-H460
Assay: NCI tumour cell line growth inhibition, 48 h
Active and inactive are the calls of the source. Cut-off read from the data, not from the text of the source: active = GI50 up to about 1.1 µM and inactive = higher.
MEASURED METRIC: GI50

{"columns": ["MOLECULE", "ASSAY TARGET", "GI50"],
 "data": [
  ["CC(=O)Nc1ccc(/C=C/C(=O)c2sc(-n3nc(-c4ccccc4)cc3-c3ccccc3)nc2C)cc1", "NCI-H460", "> 10 µM (inactive)"],
  ["C=C(c1ccccc1)c1ccccc1-c1cc(-c2ccccc2)cc(-c2ccccc2)n1", "NCI-H460", "> 100 µM (inactive)"],
  ["C=CCC12CC(=O)CCC1c1ccc(OC)cc1C2=O (stereo not given)", "NCI-H460", "> 100 µM (inactive)"]
]}

Problem: Bench note: what GI50 did C[C@@H](NC(=O)[C@@H]1C[C@]1(C)COC(=O)c1cc([N+](=O)[O-])cc([N+](=O)[O-])c1)c1cccc2ccccc12 show?
Result: > 100 µM (inactive)

Problem: Note, next up: COn1cc(C=O)c2ccccc21
Result: 35.1 µM (inactive)

Problem: Note, next up: O=[N+]([O-])c1cc(-[n+]2cc([O-])on2)ccc1Cl
Result: 34.2 µM (inactive)

====

Test system: HT-29
Assay: NCI tumour cell line growth inhibition, 48 h
Activity calls are given as the source filed them. Cut-off read from the data, not from the text of the source: active = GI50 up to about 1.1 µM and inactive = higher.
One label from this list, please: active, inactive

Consider the worked cases shown below.
{"columns": ["MOLECULE", "CATEGORY LABEL"],
 "data": [
  ["CC(=O)Oc1ccc2c3c1O[C@H]1[C@H](O)CC[C@@]4(O)[C@@H](C2)N(C)CC[C@]314", "inactive"],
  ["O=CN1CCN(C(=O)c2cc(Cl)cc(Cl)c2)C1=S", "inactive"],
  ["O=C1C(O)=C(CN(CCCl)CCCl)C(=O)c2ccccc21", "inactive"],
  ["Cc1cccc(C)c1NC(=O)C(=O)CC(=O)CO", "inactive"],
  ["Fc1ccc(C2SCc3nc4ccccc4n32)cc1 (configuration not stated)", "inactive"],
  ["Nc1ccccc1OCCCOc1ccccc1N", "inactive"],
  ["CC12CCC(=O)C=C1CCC1C2C(O)CC2(C)C(c3csc(N)n3)CCC12.O=S(=O)(O)c1ccc(Br)cc1 (configuration not stated)", "inactive"],
  ["CC(Oc1ccc(Cl)cc1Cl)C(=O)NN1C(=O)CC(=O)NC1=S (configuration not stated)", "inactive"]
]}

Problem: Assay outcome for O=C1CSC(/C=C/c2ccccc2)N1c1ccc(-n2c(-c3ccccc3)nc3ccccc3c2=O)cc1 (configuration not stated) : what was it?
Result: inactive

Problem: Note, next up: CC(=O)OC1=C2CC[C@@H]3C(CC[C@@]4(C)C3CC[C@@H]4OC(C)=O)[C@@]2(C)CC(C#N)C1=O (some centres not stated)
Result: inactive

Problem: Note, next up: CN(C)/C=N/S(=O)(=O)c1nn2c(C=O)c(-c3ccc(-c4ccc([N+](=O)[O-])cc4)o3)nc2s1
Result: active

Problem: Note, next up: CSCCCNC(=O)c1csc(-c2csc(CCN)n2)n1
Result: inactive

Problem: Note, next up: Cc1cc(C)nc(NC(P(=O)(O)O)P(=O)(O)O)n1
Result: inactive

Problem: Note, next up: C[C@]12CCC[C@H](Cl)C1(O)C[C@H](C(=O)O)CC2 (some centres not stated)
Result: inactive

Problem: Note, next up: O=C1c2ccccc2NC1(c1ccccc1)c1c(-c2ccccc2)[nH]c2ccccc12 (configuration not stated)
Result: inactive

Problem: Note, next up: COc1cc2c(cc1OCCCC(=O)Nc1cc(C(=O)Nc3cc(C(=O)Nc4cc(C(=O)NCCCN(C)C)n(C)n4)n(C)n3)n(C)n1)N=CC1CCCN1C2=O (configuration not stated)
Result: inactive

Problem: Note, next up: Cc1nnc(N)nc1C/C=C/C(C)Sc1ccc(Cl)cc1 (configuration not stated)
Result: inactive

Problem: Note, next up: Nc1cc(F)ccc1CC(=O)O
Result: inactive

Problem: Note, next up: C=CC[C@H](C)CCC(=O)N1[C@H]2CC3CC[C@@]2(CS1(=O)=O)C3(C)C
Result: inactive

====

System: HOP-92
Assay: NCI tumour cell line growth inhibition, 48 h
Structures can show the parent of a compound that is named as a salt. Calls of active or inactive are those of the source. No stated cut-off is given here; in the data, active = GI50 up to about 1.1 µM and inactive = higher.
MEASURED METRIC: GI50

Problem: Bench note: what GI50 did COc1ccc(NC(=O)C(=O)Cc2nc3ccc(C(=O)c4ccccc4)cc3nc2O)c([N+](=O)[O-])c1 show?
Result: 10.8 µM (inactive)

Problem: Note, next up: CCCCCCCCCc1cc(=O)c2ccc(O)cc2o1
Result: 16.4 µM (inactive)

Problem: Note, next up: CN1[C@@H]2CC[C@H]1C[C@@H](OC(c1ccccc1)c1ccccc1)C2 [BENZTROPINE MESYLATE]
Result: 12.4 µM (inactive)

Problem: Note, next up: COc1cc(/C=C2\CCc3cc(OC)c(OC)cc3C2=O)cc(OC)c1
Result: 24.3 µM (inactive)

Problem: Note, next up: NC1CC(n2ccc(=O)[nH]c2=O)OC1C(O)CO (stereo not drawn)
Result: > 100 µM (inactive)

Problem: Note, next up: O=C1Nc2ccccc2Nc2nc3cccccc-3c21
Result: > 100 µM (inactive)

Problem: Note, next up: C/C(=C\c1ccccc1)n1c(=O)cc(C)n1C
Result: > 100 µM (inactive)

Problem: Note, next up: NC(CCC(=O)Nc1ccc(O)cc1)C(=O)O (stereo not drawn)
Result: > 100 µM (inactive)

Problem: Note, next up: Nc1ccccc1OCCCOc1ccccc1N
Result: > 100 µM (inactive)

Problem: Note, next up: O=C1C(C(O)(C(F)(F)Cl)C(F)(F)Cl)CCC1C(O)(C(F)(F)Cl)C(F)(F)Cl (stereo not drawn)
Result: 2.09 µM (inactive)

Problem: Note, next up: COc1ccc(/C=C(\C#N)c2nc3ccccc3c(=O)[nH]2)cc1
Result: 12.1 µM (inactive)

Problem: Note, next up: COC(=O)[C@@](NC(=O)OCc1ccccc1)([C@H](C)O)C(F)(F)F
Result: > 100 µM (inactive)

Problem: Note, next up: Cn1c2c(c3ccccc31)CCN1C(=O)CCC21 (stereo not drawn)
Result: > 10 µM (inactive)

Problem: Note, next up: CN(C(=O)[C@H](NC(=O)OCc1ccccc1)c1ccccc1)C1CCCCC1N1CCCC1 (stereo partly drawn)
Result: 31.5 µM (inactive)

Problem: Note, next up: CC(C)=C1C(=O)C[C@]2(C)C[C@H]3O[C@]3(C)CC[C@@H]3O[C@@]3(C)CC[C@@H]12
Result: > 50 µM (inactive)

Problem: Note, next up: O=C(NC(Cc1ccc(I)cc1)C(=O)O)c1cccc(Br)c1 (stereo not drawn)
Result: 44.9 µM (inactive)

Problem: Note, next up: C[C@@H](NC(=O)[C@@H]1C[C@]1(C)COC(=O)c1cc([N+](=O)[O-])cc([N+](=O)[O-])c1)c1cccc2ccccc12
Result: 80.2 µM (inactive)

Problem: Note, next up: O=[N+]([O-])c1cc(-[n+]2cc([O-])on2)ccc1Cl
Result: 19.2 µM (inactive)

====

Test system: IGROV-1
Assay: NCI tumour cell line growth inhibition, 48 h
Activity calls are given as the source filed them. No stated cut-off is given here; in the data, active = GI50 up to about 1.1 µM and inactive = higher.
One label from this list, please: 1 (yes) (active), 0 (no) (inactive)

{"columns": ["COMPOUND", "CATEGORY LABEL"],
 "data": [
  ["O=C(NCCCCCN1CCC2(CCCCC2)CC1)C(C1CCCCC1)C1CCCCC1", "0 (no)"],
  ["Cc1c(N)nc([C@H](CC(N)=O)NC[C@H](N)C(N)=O)nc1C(=O)N[C@H](C(=O)N[C@H](C)[C@@H](O)CC(=O)N[C@H](C(=O)NC(O[C@@H]1O[C@@H](C)[C@@H](N)[C@@H](O)[C@H]1O)C(O)c1nc(-c2nc(C(=O)NCCCCN)cs2)cs1)[C@@H](C)O)[C@@H](O[C@@H]1O[C@@H](CO)[C@@H](O)[C@H](O)[C@@H]1O[C@H]1O[C@H](CO)[C@@H](O)[C@H](OC(N)=O)[C@@H]1O)c1c[nH]cn1 (stereo not given in full)", "0 (no)"],
  ["O=C(C(Cl)=C(N1CCOCC1)N1CCOCC1)C(Cl)Cl", "0 (no)"],
  ["Cc1cc(C(=O)CBr)c(CN2C(=O)c3ccccc3C2=O)c(=O)n1C", "0 (no)"],
  ["CCOC(=O)/C(C#N)=C/c1[nH]c(C)c(C)c1C", "0 (no)"],
  ["CCSc1s/c(=N/c2ccc(/N=c3\\sc(C)c(SC)s3)cc2)sc1-c1ccc(C)cc1", "0 (no)"]
]}

Problem: Assay outcome for OCC1OC(n2cnc3c(/C=C(/O)c4ccccc4)ncnc32)C(O)C1O (stereo not given) : what was it?
Result: 1 (yes)

Problem: Note, next up: Cc1c2cccc-2c(OCCOC(=O)n2ccnc2)cc2c1[nH]c1ccccc12
Result: 0 (no)

Problem: Note, next up: CSc1nc(NC2OCC(O)C(O)C2O)c(N)c(=O)n1C (stereo not given)
Result: 0 (no)
